Hey, just so you know, these numbers are from patent US9409952B2.

Give measured AUC for each item. Keep answers brief.
# PROTOCOL: in vivo
# CONDITION PARAMETERS: male, C57BL/6J, mouse, iv, 20 mg/kg
Positions of bridges follow the written chain, without caps; N, C: chain ends. Non-standard residues stand in square brackets, D forms with d. Residues, ends and D or L forms follow the SMILES beside them. *: point of attachment. NMeF = CN[C@@H](Cc1ccccc1)C(=O)O; NMeI = CC[C@H](C)[C@H](NC)C(=O)O; NMeL = CN[C@@H](CC(C)C)C(=O)O; NMeV = CN[C@H](C(=O)O)C(C)C; NMeA = CN[C@@H](C)C(=O)O; Piperidide = C1CCN(*)CC1; Sar = CNCC(=O)O; tBu = CC(C)(C)*
Give bare numbers, in ng·h/mL.

MOLECULE: CC[C@H](C)[C@H]1C(=O)N[C@@H](COC(C)(C)C)C(=O)N(C)[C@@H](Cc2ccccc2)C(=O)N(C)[C@@H](C(C)C)C(=O)N[C@H](C(=O)N2CCCCC2)CC(=O)N(C)[C@@H](C)C(=O)N(C)[C@@H](Cc2ccccc2)C(=O)N[C@@H](CC(C)C)C(=O)N(C)[C@@H](CC(C)C)C(=O)N[C@@H]([C@@H](C)O)C(=O)N(C)CC(=O)N1C [DP-47] ([NMeA][NMeF]L[NMeL]T[Sar][NMeI]S(tBu)[NMeF][NMeV]D-Piperidide; lactam N-11)
REPORTED PROPERTY: AUC
VALUE UNITS: ng·h/mL
VALUE REPORTED: 202000

State the recorded AUC for every item in the following list.
1. CC(C)C[C@H]1C(=O)N2CCC[C@H]2C(=O)N(C)[C@@H](CC(C)C)C(=O)N[C@@H](C)C(=O)N(C)[C@@H](C(C)C)C(=O)N[C@H](C(=O)N2CCCCC2)CC(=O)N(C)[C@@H](C)C(=O)N[C@@H]([C@@H](C)O)C(=O)N(C)CC(=O)N(C)[C@@H](Cc2ccccc2)C(=O)N(C)[C@@H](Cc2ccccc2)C(=O)N1C [DP-67] ([NMeA]T[Sar][NMeF][NMeF][NMeL]P[NMeL]A[NMeV]D-Piperidide; lactam N-11)
2. CC[C@H](C)[C@H]1C(=O)N[C@@H]([C@@H](C)O)C(=O)N(C)CC(=O)N(C)[C@@H](CC(C)C)C(=O)N[C@H](C(=O)N2CCCCC2)CC(=O)N(C)[C@@H](C)C(=O)N[C@@H](CC(C)C)C(=O)N(C)[C@@H](CC(C)C)C(=O)N(C)[C@@H](Cc2ccccc2)C(=O)N[C@@H](C)C(=O)N(C)[C@@H](Cc2ccccc2)C(=O)N1C [DP-101] ([NMeA]L[NMeL][NMeF]A[NMeF][NMeI]T[Sar][NMeL]D-Piperidide; lactam N-11)

A:
1: 70700; 2: 83300

* * *

# PROTOCOL: Metabolic stability in human hepatic microsome
# Type: in vitro ADME
# CONDITION PARAMETERS: microsomes, pH 7.4; human hepatic microsome, NADPH(+); read-out: CL NADPH(+)
Starred links: 1 amine or outer side, 2 acyl side, 3 side chain; linkers in the order of their positions; H or OH if unused. Positions of bridges follow the written chain, without caps; N, C: chain ends. Non-standard residues stand in square brackets, D forms with d. Residues, ends and D or L forms follow the SMILES beside them. *: point of attachment. NMeF = CN[C@@H](Cc1ccccc1)C(=O)O; NMeGABA = CN(CCCC(=O)[*:2])[*:1]; NMeI = CC[C@H](C)[C@H](NC)C(=O)O; NMeL = CN[C@@H](CC(C)C)C(=O)O; Piperidide = C1CCN(*)CC1; dNMeA = CN[C@H](C)C(=O)O; NPrGly = CCCNCC(=O)O; Sar = CNCC(=O)O; tBu = CC(C)(C)*
REPORTED PROPERTY: microsomal CLint at 1 uM (µL/min/mg)
Give bare numbers, in µL/min/mg.

Below: 2 molecules and their reported microsomal CLint at 1 uM.
MOLECULE: CC(C)C[C@H]1C(=O)N(C)[C@@H](CC(C)C)C(=O)N[C@@H](COC(C)(C)C)C(=O)N[C@H](C(=O)N2CCCCC2)CC(=O)N(C)CCCC(=O)N(C)[C@@H](Cc2ccccc2)C(=O)N[C@@H]([C@@H](C)O)C(=O)N(C)CC(=O)N1C [DP-695] ([NMeGABA][NMeF]T[Sar][NMeL][NMeL]S(tBu)D-Piperidide; lactam N-8)
microsomal CLint at 1 uM (µL/min/mg): 47
//
MOLECULE: CCCN1CC(=O)N(C)[C@@H](CC(C)C)C(=O)N[C@H](C(=O)N2CCCCC2)CC(=O)N(C)[C@H](C)C(=O)N[C@@H](CC(C)C)C(=O)N(C)[C@@H](CC(C)C)C(=O)N(C)[C@@H](Cc2ccccc2)C(=O)N[C@@H](C)C(=O)N(C)[C@@H](Cc2ccccc2)C(=O)N(C)[C@@H]([C@@H](C)CC)C(=O)N[C@@H]([C@@H](C)O)C1=O [DP-635] ([dNMeA]L[NMeL][NMeF]A[NMeF][NMeI]T[NPrGly][NMeL]D-Piperidide; lactam N-11)
microsomal CLint at 1 uM (µL/min/mg): 112

Lab note: next molecule to report on.
Q: Which measured microsomal CLint at 1 uM value corresponds to CC(C)C[C@H]1C(=O)N[C@@H]([C@@H](C)O)C(=O)N(C)[C@@H](Cc2ccccc2)C(=O)N[C@@H](COC(C)(C)C)C(=O)N[C@H](C(=O)N2CCCCC2)CC(=O)N[C@@H](C(C)C)C(=O)N(C)CC(=O)N1C [DP-749] (V[Sar][NMeL]T[NMeF]S(tBu)D-Piperidide; lactam N-7) ?
A: 56
